# Tested system: T1, Kj12B-CDDshort R1565E peptide (Xenorhabdus stockiae KJ12.1, R1565E (stands in the printed letters))
# T1 construct: source: synthetic peptide (Fmoc solid-phase synthesis, preparative HPLC)
# Test description: ITC; 50 µM NDD (or Kj12C construct) in the cell titrated with 1 mM CDD peptide; 20 °C; 50 mM sodium phosphate pH 6.5, 100 mM NaCl; one site binding model; three independent titrations
# Condition: both partners purified
Value kind: Kd

Asked: Give a short answer stating reported Kd for Kj12C N-terminal docking domain (domain or fragment, Kj12C of Xenorhabdus stockiae KJ12.1, N-terminal docking domain, 63 residues; 15N-labelled for the NMR titrations; also called Kj12C-NDD; source: E. coli BL21-Gold(DE3), purified (HisTrap, Ulp1 cleavage, anion exchange, SEC); not shown: His6-SUMO, N-terminal, cleaved) MIDAAQIVDEALEQGITLFVVNNRLQYETSRDSIPTELLNKWKQHKQELIDFLNQLDSEEQTK .
Given back: > 100 µM
